Form field: MIC (one value per entry).
# Tested on: Escherichia coli
# experimentalProtocol: Antibacterial activity against Escherichia coli after 24 hr
# Type: functional
measuredAttribute: MIC (µg/mL)

{"columns": ["mol", "measuredAttribute", "resultUnits", "observedValue"],
 "data": [
  ["COc1ccc2c(CNc3ccc4c(C)cc(=O)oc4c3)cc(=O)oc2c1", "MIC", "µg/mL", 45.9],
  ["Cc1cc(=O)oc2cc(OCC(=O)NNS(=O)(=O)c3ccc(Cl)cc3)ccc12", "MIC", "µg/mL", 55.3],
  ["CCOC(=O)c1oc2cc(OC)ccc2c1CNc1ccc2c(C)cc(=O)oc2c1", "MIC", "µg/mL", 51.6],
  ["O=C(O)c1cn(C2CC2)c2cc(N3CCNCC3)c(F)cc2c1=O", "MIC", "µg/mL", 0.6],
  ["Cc1cc(=O)oc2cc(OCC(=O)NNS(=O)(=O)c3cccc([N+](=O)[O-])c3)ccc12", "MIC", "µg/mL", 26],
  ["Cc1cc(=O)oc2cc(OCC(=O)NNS(=O)(=O)c3ccc(F)cc3)ccc12", "MIC", "µg/mL", 24.1],
  ["Cc1cc(=O)oc2cc(OCC(=O)NNS(=O)(=O)c3ccc(Br)cc3)ccc12", "MIC", "µg/mL", 42.6],
  ["Cc1cc(=O)oc2cc(OCC(=O)NNS(=O)(=O)c3ccc(C(F)(F)F)cc3)ccc12", "MIC", "µg/mL", 44.5],
  ["Cc1ccc(S(=O)(=O)NNC(=O)COc2ccc3c(C)cc(=O)oc3c2)cc1", "MIC", "µg/mL", 98.4],
  ["COc1ccc2c(CNc3ccc4c(C)cc(=O)oc4c3)c(Br)c(=O)oc2c1", "MIC", "µg/mL", 46.4],
  ["Cc1cc(=O)oc2cc(OCC(=O)NNc3ccnc4c(Cl)cccc34)ccc12", "MIC", "µg/mL", 28.9]
]}

These data points were gathered from ChEMBL document CHEMBL3045805.
